# PROCEDURE_SUMMARY: Acute toxicity (LD 50), intraperitoneal administration
# Format: in vivo
# CONDITION_NOTES: mouse, in vivo; LD 50 (mice, i.p.) relative to anti-hypertensive ED 20% (SHR, oral); read-out: Therapeutic range Q
# binarize selectivity ratio: threshold 50 inclusive, high side true, low side false

Some solved cases for reference:
COMPOUND	CLASS_LABEL
Cc1nccn1-c1ccc(NN)nn1	true
NNc1nnc(NN)c2ccccc12 [Dihydralazine, dihydralazine, reference compound]	false
CCc1nccn1-c1ccc(NN)nn1	true

Task: Is it the case that CC(C)=NNc1ccc(-n2ccnc2C)nn1 has selectivity ratio reaching or exceeding 50?
Result: false
